inhibition at 1 µM overview
Target: UniProtKB P27338
Sequence (P27338 whole entry): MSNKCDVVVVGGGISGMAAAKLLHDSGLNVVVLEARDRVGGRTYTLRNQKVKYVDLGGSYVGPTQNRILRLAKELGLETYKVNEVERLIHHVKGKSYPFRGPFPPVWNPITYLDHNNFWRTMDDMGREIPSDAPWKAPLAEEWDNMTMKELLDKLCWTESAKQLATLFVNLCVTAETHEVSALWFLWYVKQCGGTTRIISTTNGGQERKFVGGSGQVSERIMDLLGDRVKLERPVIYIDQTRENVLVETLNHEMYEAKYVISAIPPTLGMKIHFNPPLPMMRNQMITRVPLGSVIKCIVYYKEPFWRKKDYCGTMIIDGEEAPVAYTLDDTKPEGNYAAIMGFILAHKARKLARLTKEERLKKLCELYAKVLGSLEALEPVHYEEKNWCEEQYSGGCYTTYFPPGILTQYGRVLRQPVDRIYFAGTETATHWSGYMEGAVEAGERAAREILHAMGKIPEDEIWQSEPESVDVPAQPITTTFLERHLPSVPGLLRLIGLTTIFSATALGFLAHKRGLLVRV
Test: Inhibition of recombinant human MAO-B using benzylamine as substrate at 1 uM incubated for 20 mins by fluorescence microplate reader analysis relative to control
Conditions: read-out: INH
Please give a number only; it is taken to be in %.

Example compounds with recorded inhibition at 1 µM:
O=C(Nc1ccc(Cl)c(Cl)c1)c1ccccc1    40.2
COc1cccc(NC(=O)c2ccc3c(c2)OCCO3)c1    19.7

Give the measured inhibition at 1 µM of O=C(Nc1ccc2c(c1)OCCO2)c1ccc(Cl)c(Cl)c1 .
30.8
